Please provide measured melting point for the entries that follow.

smiles-entry: CCCCCCCCCCCCOc1ccc(C(=O)O)c(O)c1
parameter: melting point
recorded-result: 98 to 100 °C

Hi there! I need melting point for each item below, if you can.
1. CCCc1c(OCC#CCSCCO)ccc(C(C)=O)c1O
2. CSc1nc(Cl)c(C#N)s1
3. O=C(CCCN1CCC(c2ccccc2)CC1)c1ccc2c(c1)Cc1cc(C(=O)CCCN3CCC(c4ccccc4)CC3)ccc1-2
4. CSc1ccc(-c2cc(-c3nc4ccccc4c(=O)n3-c3ccccc3)sc2N2CCOCC2)cc1
5. CN(C)C=Cc1[nH]c(=O)ccc1C#N
6. O=C(O)c1cc(Br)sc1Cl
7. COc1ccc(C=C(C#N)c2ccc(F)cc2)cc1OC1CCCC1

output:
["52 to 53 °C", "83 to 87 °C", "190 to 192 °C", "218 to 220 °C", "298 to 300 °C", "159 to 160 °C", "139 to 141 °C"]

For each of the compounds below, state melting point.
1. CC(C)c1nc(CCOC(=O)N[C@H](C(=O)N[C@@H](Cc2ccccc2)C[C@H](O)[C@H](Cc2ccccc2)NC(=O)OCc2cncs2)C(C)C)cs1
2. O=c1oc(-c2ccc3c(c2)OCCO3)cc(O)c1SCc1ccccc1

output:
146 to 147 °C
192 to 193 °C

----------
I'd be grateful if you could share measured melting point for these entries.

compound: CCOc1nc2cc(C)nn2c2cc(Cl)ncc12
melting point: 176 °C
//
compound: COc1cc(C(=O)O)ccc1Cc1c(Cl)n(C)c2ccc(CC3CCN(C)C3=O)cc12 (stereo not given)
melting point: 204 to 205 °C
//
compound: Cc1cccc(NC(=O)NCC(=O)N(c2ccccc2)c2ccccc2CC(=O)NC(C)(C)C)c1
melting point: 216 °C
//
compound: Cc1ccc([N+](=O)[O-])c2[nH]ccc(=O)c12
melting point: 219 to 225 °C
//
compound: CC(C)Nc1cccnc1N1CCN(C(=O)c2ccc(C(=O)O)cn2)CC1
melting point: 211 to 214 °C
//
compound: O=C(CCc1cccc2[nH]ccc12)c1ccccc1O
melting point: 143 °C
//
compound: CCC1C(C)=NN=C(c2ccc(OC)c(O)c2)c2cc(O)c(OC)cc21 (stereo not given)
melting point: 143 to 145 °C
//
compound: CCCCCCCCCCCCCCCCCC(=O)NCC(C)(C)COC(=O)CCCCCCCCCCCCCCCCC
melting point: 60 to 62 °C
//
compound: Oc1ccc(-c2n[nH]c3ncnc(Nc4cccc(Cl)c4)c23)cc1
melting point: > 220 °C
//
compound: COP(=O)(Cc1cc(CP(=O)(OC)OC)cc(CP(=O)(OC)OC)c1)OC
melting point: 106 °C

Please report melting point for every entry that follows.
1. CC1(C)OC2C=CC(=O)C2O1 (single isomer, unassigned; (+))
2. OCCCc1cnoc1-c1ccc(Cl)c(Br)c1
3. N#Cc1nn(-c2c(Cl)cc(C(F)(F)F)cc2Cl)c(N)c1-c1ccc(F)c(Cl)c1
4. O=S(=O)(c1ccc(N2CCCCCC2)cc1)N1CCCC1=S

output:
["68 to 69 °C", "75 to 76 °C", "197 to 198 °C", "172 to 173 °C"]
